Quick reference for GFP response, % of DMSO among some molecules
assay.protocol: AGP1-GFP expression modulators, hit retest, confirmation, cell-based, flow cytometry, S. cerevisiae, cherry picks (AID 2273);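 also: median GFP channel fluorescence over the whole cell population gate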
condition.set: S. cerevisiae AGP1-GFP strain, 3 h, at 10 µM
A number alone suffices; assume %.

Cc1cccc(NC(c2ccc(C)s2)c2ccc3ccc(C)nc3c2O)n1 (configuration not stated) :: 94.9

I'd like to know its GFP response, % of DMSO. The molecule in question is "N/C(Cc1ccc(Cl)cc1)=N\OC(=O)c1cccc2ccccc12"
88.1

Quick one: "Cc1noc2ncnc(Sc3ccccc3Cl)c12"
101

Please do the same for "CCN(CC)CCCN(Cc1cc2cc3c(cc2[nH]c1=O)OCO3)C(=S)Nc1ccccc1" as well.
133

Next: "N#C/C(=C/c1ccc(N2CCOCC2)o1)c1ccc(Br)cc1"
95.5

What about CCOc1ccc2nc(SCC(=O)NCC3CCCO3)c(C#N)cc2c1 (configuration not stated) ?
96.3

Repeat for the following molecule: "Cn1cc(/C=C/c2cc[n+](C)cc2)c2cc(Cl)ccc21"
111

----------
Reported GFP response, % of DMSO values are given for each entry in this list.
assay.protocol: modulators of CIT2-GFP expression in yeast, confirmation, S. cerevisiae, GFP fusion, cherry picks, mother/daughter gates (AID 2274)
condition.set: S. cerevisiae CIT2-GFP strain, flow cytometry, 3 h; measured here: daughter cell gate; at 10 µM; stronger effect = higher value
Lab book: enter the figure in %, no units written.

Below, 5 compounds whose answers are already recorded.
O=C(O)c1ccccc1C(=O)N1CCN(c2cccc(Cl)c2)CC1 :: 98.3
Cc1cc(Br)c2c(c1)/C(=C/C(=O)c1cccs1)C(=O)N2 :: 93.7
Cc1ccccc1NC(=O)CC1SC(=O)N(c2ccccc2)C1=O (stereo unspecified) :: 108
O=C(COC(=O)C1CCN(c2ccc(C(F)(F)F)cn2)CC1)Nc1cccc(F)c1 :: 108
C=CCn1c(=O)c(C(=O)NCCc2ccccc2)c(O)c2ccccc21 :: 99.1

What does the data say about its GFP response, % of DMSO? Entry: COc1ccc(NC(=O)/C(Cl)=C(/Cl)S(=O)Cc2ccccc2)cn1 (stereo unspecified)
134

Next entry: "COc1ccc(-c2ccc(S(=O)(=O)N3CCOCC3)cc2)cc1"
97.4

CCCc1[nH]nc2c1C1(C(=O)N(C(C)C)c3ccccc31)C(C#N)=C(N)O2 (stereo unspecified) ?
101

Same again, this time with "COc1cc(/C=C/c2ccc3c(Br)cc(Br)c(O)c3n2)ccc1O"
105

// repeat for "O=[N+]([O-])c1cc(C(F)(F)F)ccc1Sc1ccccn1" and report
103

Same question for "COc1cc(NC(=O)c2ccccc2)ccc1NC(=O)c1cc2ccccc2o1" please.
95.8

----------
assay.protocol: LAP4-GFP expression modulators in yeast, confirmation, cell-based, cherry picks, flow cytometry, mother/daughter gates (AID 2271);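 also: ratio of sample to DMSO plate mean so 100% equals DMSO level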
condition.set: S. cerevisiae LAP4-GFP strain, 3 h, measured here: daughter cell gate response, at 10 µM, stronger effect = higher value, 100 means same as DMSO control
Known GFP response relative to DMSO of a selection of compounds
// units = %; emit number, no label

Worked examples, 5 compounds total:
O=C(CCCCCN1C(=O)c2cccc3cccc(c23)C1=O)N1CCOCC1 :: 101
C[n+]1ccc(/C=C/c2c[nH]c3ccc(F)cc23)cc1 :: 110
Cc1ccc(C(C[N+](=O)[O-])n2nc(C)cc2C)cc1 (stereo unspecified) :: 120
O=[N+]([O-])c1ccc(Cl)cc1Sc1ccccn1 :: 96
Cc1ccc(S(=O)(=O)c2ncccc2[N+](=O)[O-])cc1 :: 123

Could you now consider this next compound?
Look up GFP response relative to DMSO for this compound: "CCN(CC(=O)NC(C)(C)C)C(=O)COc1c(Cl)cc(Cl)c2ccc(C)nc12"
121

----------
GFP response relative to DMSO overview
assay.protocol: LAP4-GFP expression modulators in yeast, confirmation, cell-based, cherry picks, flow cytometry, mother/daughter gates (AID 2271);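 also: ratio of sample to DMSO plate mean so 100% equals DMSO level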
condition.set: S. cerevisiae LAP4-GFP strain, 3 h, at 10 µM, stronger effect = higher value, 100 means same as DMSO control
Just the number please, in %, no unit attached.

Below are worked cases with known answers.
O=C(c1ccccc1F)N1CCN(c2ccccc2F)CC1 :: 98.7
COc1ccc(-c2nc(NC(=O)c3cc(C(C)(C)C)nn3C)sc2C)cc1 :: 98.9
CN(CCCS(=O)(=O)[O-])c1ccc(/C=C/c2ccc3ccccc3[n+]2C)cc1 :: 102
CCn1c(=O)c(C(=O)NCc2ccc(OC)cc2)c(O)c2ccccc21 :: 97.7
Cc1ccc(NC(=O)c2ccc([N+](=O)[O-])o2)cc1C :: 128

// lookup GFP response relative to DMSO for "Cc1ccc(-c2nc3ccccn3c2NC(=O)c2ccco2)cc1"
98.9

Also "O=[N+]([O-])c1c(Nc2ccccn2)cc(Cl)c2nonc12" , if possible.
478

Okay, and "CCOC(=O)C(=CNNc1cccc(Cl)c1)C(=O)OCC" ?
131

Now the molecule O=C1Nc2ccccc2C(=O)C1(Cl)Cc1ccccc1 (stereo unspecified)
132

Further, for Cc1ccc(S(=O)(=O)N2CCCC2C(=O)Oc2ccccc2)cc1 (stereo unspecified) ?
99.2

// next record "CCCN(c1ccccc1F)S(=O)(=O)c1cc(-c2cc(C)no2)ccc1OC"
97.9

----------
assay.protocol: LAP4-GFP expression modulators in yeast, confirmation, cell-based, cherry picks, flow cytometry, mother/daughter gates (AID 2271);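 also: ratio of sample to DMSO plate mean so 100% equals DMSO level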
condition.set: S. cerevisiae LAP4-GFP strain, 3 h, measured here: daughter cell gate response, at 10 µM, stronger effect = higher value, 100 means same as DMSO control
The entries below come with measured GFP response relative to DMSO values attached.
Report as a plain number; the unit % is understood.

Before answering, review these 4 worked examples.
CCOC(=O)c1ccc(NC(=O)c2nc(S(=O)(=O)Cc3ccccc3)ncc2Cl)cc1 :: 95.6
COc1ccc(/C=N/Nc2nnc(C)n2N)cc1OC(C)=O :: 96.5
O=C(c1ccccc1Br)N1CCN(c2ccccc2)CC1 :: 92.5
O=C(Cn1c(=O)oc2cc(S(=O)(=O)N3CCCC3)ccc21)Nc1ccccc1Br :: 97.6

Return reported GFP response relative to DMSO; argument: "O=c1c2c(-c3ccc(Cl)cc3)csc2ncn1/N=C/c1cccc([N+](=O)[O-])c1O"
95

Try "Cn1cc(/C=C/c2cc[n+](C)cc2)c2cc(F)ccc21" next.
117

Next compound up: "C/C(=N\NC(=O)c1cccc(Br)c1)c1ccccn1"
149

Moving on to "O=C(Nc1cc(Sc2ccccn2)cc([N+](=O)[O-])c1)c1cccc(F)c1"
96

What do you get for "CN1CCSc2ccc(C(=O)Nc3cccc(F)c3)cc21" ?
115

# iterate: "CCOc1cc(-c2noc(-c3cccnc3)n2)ccc1OC"
99

Can you check "O=C(C1CCN(Cc2nc(Cc3cccc(F)c3)no2)CC1)N1CCOCC1" next?
100

----------
assay.protocol: modulators of CIT2-GFP expression in yeast, confirmation, S. cerevisiae, GFP fusion, cherry picks, mother/daughter gates (AID 2274)
condition.set: S. cerevisiae CIT2-GFP strain, flow cytometry, 3 h; measured here: mother cell gate; at 10 µM; stronger effect = higher value
parameter: GFP response, % of DMSO (%)
Give the value, in units of %, as a plain number.

Past entries and their recorded results:
Cc1ccc(NC(=O)c2ccccc2O)cc1 :: 99.1
O=S(=O)(c1ccc(C2CCCCC2)cc1)N1CCOCC1 :: 101
CC1=NNC(=O)/C1=C\c1cn(-c2ccccc2)nc1-c1ccc(Cl)cc1 :: 95.7

// returns reported GFP response, % of DMSO for input "CCCCn1c(-c2csc3c2CCCC3)n[nH]c1=S"
80.5

Can you handle "COc1ccc(-c2csc(N(CC(C)C)C(=O)c3ccco3)n2)cc1" next?
97.1

Then what about the molecule "CN(C(=O)c1ccccc1Cl)c1ccccc1" ?
102

Input "c1ccc(CSc2ccc(-c3ccccn3)nn2)cc1"
93.2

----------
assay.protocol: inhibitors of CD8+ T cell-vesicle binding, pilot screen, LFA-1/ICAM-1 modulator project, MLPCN validation set, flow cytometry (AID 2523)
condition.set: 2C mouse CD8+ T cells, at 7 µM, stronger effect = lower value; measured here: CD8+/vesicle+ event percentage
double positive events by entry:
Please give a number only; it is taken to be in %.

Some compounds with recorded double positive events:
COc1ccc(CCn2c(C)cc3c(c2=O)C(c2ccncc2)C(C#N)=C(N)O3)cc1OC (stereo unspecified) :: 59.3
O=c1ccc2ccccc2o1 :: 62.3
C[C@]12CCC(=O)C=C1CC[C@@H]1[C@@H]2C(=O)C[C@@]2(C)[C@H]1CC[C@]2(O)C(=O)CO :: 61.9
C/C(NC(=O)c1cccs1)=C1\C(=O)C[C@@H]2[C@H]1C2(C)C :: 56.1
COC(=O)c1[nH]c2ccc(F)cc2c1NC(=O)C1=COCCO1 :: 55.5

Please turn your attention to the following entry.
Consider the compound shown here: CC(=O)OCC1OC(n2ccc(=O)[nH]c2=O)C(O)C1O (stereo unspecified) What is its recorded double positive events?
60.2

Source of measurements: PubChem BioAssay
